study.system: T1, MDMX (UniProt O15151 1-490)
T1 sequence: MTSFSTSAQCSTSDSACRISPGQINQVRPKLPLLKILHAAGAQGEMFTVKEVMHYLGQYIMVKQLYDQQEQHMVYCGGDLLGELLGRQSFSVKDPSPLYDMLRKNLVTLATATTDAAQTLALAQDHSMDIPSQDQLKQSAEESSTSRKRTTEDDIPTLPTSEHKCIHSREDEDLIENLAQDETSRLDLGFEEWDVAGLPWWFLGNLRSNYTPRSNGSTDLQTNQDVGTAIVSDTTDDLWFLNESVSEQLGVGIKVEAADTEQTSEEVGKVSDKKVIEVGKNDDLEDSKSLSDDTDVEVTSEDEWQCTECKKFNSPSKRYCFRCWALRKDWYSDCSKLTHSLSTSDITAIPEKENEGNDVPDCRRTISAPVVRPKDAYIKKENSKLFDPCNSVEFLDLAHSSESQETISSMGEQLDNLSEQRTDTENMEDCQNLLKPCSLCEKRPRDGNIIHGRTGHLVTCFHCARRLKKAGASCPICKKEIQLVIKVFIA
test.name: fluorescence polarisation
result.type: IC50

LTFEHYWALLT (designed binder, C-terminal amide) [PF4P_pDI] has a reported IC50 of < 1 nM
